Recorded values, source the supplement of paper PMC6555819.

test system: PPARg DBDmut:RXRa IVT, anti-PPARg (DBD mutation: PPARg1 K132A/R137A, NR concentration 270 nM, RXRa partner concentration 90 nM); experiment: PBM binding z-score (relative to random genomic background probes); higher = stronger binding; sequences stand for … in GC…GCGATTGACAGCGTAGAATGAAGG
Recorded endpoint: PBM binding z-score
Answer using only a numeral; do not append any unit.

Solved entries:
INSERT INTO results (sequence_text, recorded_endpoint, value_measured) VALUES
  ('ATGTCTAGGTAAAAGTTCAGTGAATCCCGAGGAT', 'PBM binding z-score', 0.931),
  ('CCTATTTGTTGACCATAAGGGCAACCGAAGCTCG', 'PBM binding z-score', 0.694),
  ('TAGCCTAGGTCATGGTCCAGTATACCACGCGAAC', 'PBM binding z-score', 0.0262),
  ('CCGAGTAGTTTATGGGGCATTCAGGCAACGGTGA', 'PBM binding z-score', -0.427),
  ('CCTGGGAGGACAGAAGGTCAGAGCTGTCCGCTTT', 'PBM binding z-score', -1.2);

Next sequence, PBM binding z-score to be filled in.
Please give the documented PBM binding z-score of "CCACACAGGTGAGAAGGTAACTCAGCCTCGATTA"
-0.137
